Molecular target: human TLR7 (Homo sapiens, UniProt Q9NYK1)
Sequence (Q9NYK1 27-1049): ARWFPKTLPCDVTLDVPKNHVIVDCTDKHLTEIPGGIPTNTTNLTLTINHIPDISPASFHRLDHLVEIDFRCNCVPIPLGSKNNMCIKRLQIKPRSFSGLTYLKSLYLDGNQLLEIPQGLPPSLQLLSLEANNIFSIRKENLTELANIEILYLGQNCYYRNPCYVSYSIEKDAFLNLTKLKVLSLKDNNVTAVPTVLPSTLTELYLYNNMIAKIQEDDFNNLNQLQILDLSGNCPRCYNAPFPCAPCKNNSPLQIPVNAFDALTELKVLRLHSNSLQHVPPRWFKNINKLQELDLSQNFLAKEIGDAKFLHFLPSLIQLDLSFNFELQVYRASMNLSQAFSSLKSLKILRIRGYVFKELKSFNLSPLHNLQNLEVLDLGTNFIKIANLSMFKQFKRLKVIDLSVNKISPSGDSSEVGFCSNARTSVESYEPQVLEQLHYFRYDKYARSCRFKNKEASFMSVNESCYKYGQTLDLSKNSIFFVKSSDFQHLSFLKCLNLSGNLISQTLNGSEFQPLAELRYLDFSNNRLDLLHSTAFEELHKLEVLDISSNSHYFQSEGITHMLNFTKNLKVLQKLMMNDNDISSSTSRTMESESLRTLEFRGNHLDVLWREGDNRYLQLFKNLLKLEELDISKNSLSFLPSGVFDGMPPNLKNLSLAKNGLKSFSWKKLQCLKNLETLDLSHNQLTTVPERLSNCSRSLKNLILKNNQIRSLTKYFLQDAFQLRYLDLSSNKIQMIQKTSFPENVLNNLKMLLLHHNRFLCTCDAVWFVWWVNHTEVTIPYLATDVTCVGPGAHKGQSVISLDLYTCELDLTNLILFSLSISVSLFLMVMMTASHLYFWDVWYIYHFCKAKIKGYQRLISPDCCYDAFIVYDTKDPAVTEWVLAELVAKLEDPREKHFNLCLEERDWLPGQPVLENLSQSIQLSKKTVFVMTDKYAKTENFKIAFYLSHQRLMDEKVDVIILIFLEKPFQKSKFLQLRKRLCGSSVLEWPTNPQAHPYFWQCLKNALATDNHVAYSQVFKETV
Experiment: HEK Reporter Assay, HEK293 NFKB reporter cells expressing human TLR7
Conditions: read-out: EC50 against TLR7
Procedure: Exemplary aza-benzazepine compounds (azaBza) of Table 1a and comparator compounds (CBz) of Table 1b were synthesized, purified, and characterized by mass spectrometry and shown to have the expected mass. Additional experimental procedures are found in the Examples. Activity against HEK293 NFKB reporter cells expressing human TLR7 or human TLR8 was measured according to Example 202. […]
resultType: pEC50
Lab note: report pEC50 as minus log10 of the concentration in molar units, number only.

Summary for this compound, CCCN(OCCNC(=O)OC(C)(C)C)C(=O)C1=Cc2ccncc2N=C(N)C1 : pEC50 is 6.07
